All figures here come from PubChem BioAssay (NCATS).

Assay: Cell Viability - LYMP2-011 (AID 969);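 further: cells exposed to compound for 24 hours; nearly all actives have a fitted effect of over 60% in size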
Details: LYMP2-011 lymphoblastoid cells viability; series mostly up to 92.2 µM
Inconclusive results are not listed. Active and inactive are the calls of the source. The call rests on the fitted dose curve; in most records, active means well fitted cell-killing curve with a large enough effect; inconclusive means small, poorly fitted or top-dose-only effect; inactive means flat fitted curve, though single readings scatter.
Labels: 1 = active, 0 = inactive

[
  {
    "molecule": "C1COC1",
    "group": 0
  },
  {
    "molecule": "O=C1CCCCC1",
    "group": 0
  },
  {
    "molecule": "CCOCCOCC",
    "group": 0
  },
  {
    "molecule": "CCOC(=O)OCC",
    "group": 0
  },
  {
    "molecule": "Cc1ccccc1C(=O)O",
    "group": 0
  },
  {
    "molecule": "Nc1ccc(F)cc1F",
    "group": 0
  },
  {
    "molecule": "CC(C)(c1cc(Br)c(OCC(Br)CBr)c(Br)c1)c1cc(Br)c(OCC(Br)CBr)c(Br)c1 (stereo unspecified)",
    "group": 0
  },
  {
    "molecule": "O=C(O)CNC(=O)c1ccc(CO)o1",
    "group": 0
  },
  {
    "molecule": "CCCCC(C=O)CC (stereo unspecified)",
    "group": 0
  },
  {
    "molecule": "O=C(O)CNC(=O)c1ccc([N+](=O)[O-])cc1",
    "group": 0
  },
  {
    "molecule": "CCCCCCCN",
    "group": 0
  },
  {
    "molecule": "CC(=O)Nc1ccccc1C",
    "group": 0
  },
  {
    "molecule": "OC(CCl)CCl",
    "group": 0
  },
  {
    "molecule": "ClCCl",
    "group": 0
  },
  {
    "molecule": "Cc1ccc(N(C)C)cc1",
    "group": 0
  },
  {
    "molecule": "Cc1ccc(C)c([N+](=O)[O-])c1",
    "group": 0
  },
  {
    "molecule": "C=CCn1c(=O)n(CC=C)c(=O)n(CC=C)c1=O",
    "group": 0
  },
  {
    "molecule": "Cc1ccc(C#N)cc1",
    "group": 0
  },
  {
    "molecule": "NC(=O)NC(N)=O",
    "group": 0
  },
  {
    "molecule": "O=P(O)(OCc1ccccc1)OCc1ccccc1",
    "group": 0
  },
  {
    "molecule": "O=C1OC(=O)c2c(Cl)c(Cl)c(Cl)c(Cl)c21",
    "group": 0
  },
  {
    "molecule": "CCCCCCC(=O)O",
    "group": 0
  },
  {
    "molecule": "CC(O)COC(C)(C)C (stereo unspecified)",
    "group": 0
  },
  {
    "molecule": "Cc1ccc2nc(-c3ccc(N)cc3)sc2c1S(=O)(=O)O",
    "group": 0
  },
  {
    "molecule": "CC(=O)c1nccs1",
    "group": 0
  },
  {
    "molecule": "Cc1ccc(C)c(N)c1",
    "group": 0
  },
  {
    "molecule": "CC1(N)CCC(C(C)(C)N)CC1 (stereo unspecified)",
    "group": 0
  },
  {
    "molecule": "CCCCCCCCC",
    "group": 0
  },
  {
    "molecule": "CO[Si](CCCNCCC[Si](OC)(OC)OC)(OC)OC",
    "group": 0
  },
  {
    "molecule": "CCCC(C)CO (stereo unspecified)",
    "group": 0
  },
  {
    "molecule": "C[C@@H]1CC2(OC3C[C@@]4(C)C5=CC[C@H]6C(C)(C)C(O[C@@H]7OC[C@@H](O)[C@H](O)[C@H]7O)CC[C@@]67C[C@@]57CC[C@]4(C)C31)OC(O)C1(C)OC21 (stereo partly specified)",
    "group": 0
  },
  {
    "molecule": "Cc1cccc([N+](=O)[O-])c1C(=O)O",
    "group": 0
  },
  {
    "molecule": "CC(O)CC(C)O (stereo unspecified)",
    "group": 0
  },
  {
    "molecule": "Cc1cscn1",
    "group": 0
  },
  {
    "molecule": "Cc1ccccc1C#N",
    "group": 0
  },
  {
    "molecule": "Cc1c(N)cccc1N",
    "group": 0
  },
  {
    "molecule": "NCCCCCCN",
    "group": 0
  },
  {
    "molecule": "Cc1c(C(=O)O)cccc1[N+](=O)[O-]",
    "group": 0
  },
  {
    "molecule": "O=C(O)c1ccc(C(=O)O)cc1",
    "group": 0
  },
  {
    "molecule": "CCCCC/C=C/C=C/C=O",
    "group": 1
  },
  {
    "molecule": "C=C(C)C(=O)OCCCCCCCCCC",
    "group": 0
  },
  {
    "molecule": "NC(=O)CCCCC(N)=O",
    "group": 0
  },
  {
    "molecule": "OC/C(Br)=C(\\Br)CO",
    "group": 0
  },
  {
    "molecule": "O=C(O)CCSSCCC(=O)O",
    "group": 0
  },
  {
    "molecule": "CSCCC=O",
    "group": 0
  },
  {
    "molecule": "Oc1c(Cl)ccc(Cl)c1Cl",
    "group": 0
  },
  {
    "molecule": "CCOCC(=O)O",
    "group": 0
  },
  {
    "molecule": "C/C=C1\\CC2C=CC1C2 (stereo unspecified)",
    "group": 0
  },
  {
    "molecule": "CCNS(=O)(=O)c1ccc(C)cc1",
    "group": 0
  },
  {
    "molecule": "COCCOC(=O)c1ccccc1C(=O)OCCOC",
    "group": 0
  },
  {
    "molecule": "CCC(C)=O",
    "group": 0
  }
]
